# Test system: lipid peroxy radicals (LOO·)
# experiment summary: Scavenging ability against lipid peroxy radicals, AA/LOX system using NBD-Pen fluorescence probe
# Type: biochemical
# measurement context: 100 μM test substance; AA and LOX, PBS pH 7.4, 37° C.; vs absence of test substance; FIG. 6
# Excerpt: […]
metric name: NBD-Pen fluorescence signal level (scavenging of lipid peroxy radicals)

compound | assay result
CC1=CC(=O)c2ccccc2C1=O [menadione, Menadione] | decreased
Cc1cc(O)c2ccccc2c1O [vitamin K3 hydroquinone, Menadiol] | decreased
CC(C)=CCCC(C)=CCCC(C)=CCC/C(C)=C/CC1=C(C)C(=O)c2ccccc2C1=O [vitamin K2, Menaquinone-4 (MK-4)] | decreased
CC1=C(C/C=C(\C)CCCC(C)CCCC(C)CCCC(C)C)C(=O)c2ccccc2C1=O (stereo not shown) [vitamin K1, Phylloquinone] | decreased
